The origin of these recorded values is PubChem BioAssay.

assay: E. coli growth modulation, two-sided OD650, primary screen, E. coli filamentation project, strain DRC41, 24 h (AID 1093); settings: OD650, 24 h, higher = more signal, called active from +8 up or from −8 down;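 note: MC1000 strain lacking acrAB efflux and sulA so SOS filamentation is blocked; test concentration not given here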
z-score listing for selected compounds.
Form rule: numeric answer, no unit written next to it.

The recorded z-score for COCCOC(=O)N1C(=O)[C@@]2(c3cc(C#CC4=CCCCC4)ccc31)[C@H](C(=O)N1CCc3cc(OC)c(OC)cc3C1)[C@H]1C(=O)O[C@H](c3ccccc3)[C@H](c3ccccc3)N1[C@@H]2c1ccc(O)cc1 is 0.951

###

z-score listing for selected molecules.
test: MM1S cell viability effects, profiling panel, calcein-AM fluorescence, 48 h, basal (AID 1165); conditions: higher = more signal;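 note: viability of MM1S multiple myeloma cells under basal unstimulated conditions; test concentration not given here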
Form rule: numeric answer, no unit written next to it.

The recorded z-score for COc1ccc([Si](C)(C)[C@@H]2[C@@H](CC(=O)N(CCO)Cc3ccccc3)O[C@]3(C(=O)N(Cc4ccc(N5CCC5=O)cc4)c4ccccc43)[C@H]2C)cc1 is -1.28

The recorded z-score for CCOC(=O)C[C@H]1[C@H](OC(=O)c2ccc(-c3ccccc3)cc2)[C@@H](NC(=O)CC(C)C)c2cc(OCCCO)ccc2N1C(=O)Cc1ccc(OC)cc1 is -1.7

The recorded z-score for C=CC[C@]1(C(=O)NCCCOC)N=C(c2ccc(OCCCO)cc2)O[C@H]1c1ccccc1 is -0.464

The recorded z-score for C/C=C/CN(C(=O)C#Cc1ccccc1)[C@H](CO[Si](C)(C)C(C)(C)C)c1ccccc1 is -2.38

###

test: adipocyte viability effects, profiling panel, cell-based, 3T3-L1 adipocytes, calcein-AM fluorescence, 48 h, basal (AID 1163); conditions: 3T3-L1 adipocytes viability, higher = more signal; note: test concentration not given here
measure: z-score
Form rule: numeric answer, no unit written next to it.

A selection of reference data follows.
[[record]]
molecule = "O=c1cccc(-c2ccccc2C(F)(F)F)o1"
measure = "z-score"
recorded_result = -0.0994

[[record]]
molecule = "COCCOC(=O)N1C(=O)[C@@]2(c3cc(C#Cc4ccc(OC)cc4)ccc31)[C@H](C(=O)Nc1nc3ccccc3s1)[C@H]1C(=O)O[C@H](c3ccccc3)[C@H](c3ccccc3)N1[C@@H]2c1ccccc1OCCO"
measure = "z-score"
recorded_result = 1.31

[[record]]
molecule = "CCCCN1CC=CC23O[C@@H]4C=CCOC(=O)[C@@H]4[C@H]2C(=O)N(CCO)[C@@H]3C1=O (some centres undefined)"
measure = "z-score"
recorded_result = -0.426


# context switch: different molecule, same z-score
The recorded z-score for COCCCNC(=O)[C@@H]1c2ccccc2C(=O)N(C2CCCCC2)[C@H]1c1ccc(CO)cc1 is 1.15

###

experiment: PSAC antagonists in infected red cells, primary screen, cell-based, P. falciparum Indochina, OD700, 2 h (AID 1155);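 note: lysis reports solute entry through the parasite surface anion channel PSAC; channel blockers reduce lysis of infected cells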; details: P. falciparum Indochina infected erythrocytes, osmotic lysis OD700; higher = more signal, called active from +8 up or from −8 down
Kindly return Yes if reported z-score is no lower than 4; return No if it is lower.

# count of solved cases: 4
[[record]]
compound = "C=C(COC)/C(=C/C[C@H](OC(=O)c1ccncc1)c1ccc(OCCO)cc1)c1cc(C(=O)OC)ccc1OC"
group_label = "No"

[[record]]
compound = "COC(=O)[C@@]1(CCS(=O)(=O)c2ccccc2)N=C(c2ccc(OCCCO)cc2)O[C@H]1c1ccccc1N=[N+]=[N-]"
group_label = "Yes"

[[record]]
compound = "C=CCOC(=O)[C@@H]1[C@H]2C(=O)O[C@H](c3ccccc3)[C@H](c3ccccc3)N2[C@H](c2ccc(OCCOC(=O)[C@H]3C[C@H]4C(=O)NCC(=O)N4[C@H]3c3ccc(O)cc3)cc2)[C@@]12C(=O)Nc1ccc(I)cc12"
group_label = "No"

[[record]]
compound = "C=CCOC(=O)[C@H]1[C@@H]2C(=O)O[C@@H](c3ccccc3)[C@@H](c3ccccc3)N2[C@@H](c2ccc(OCCOC(=O)[C@@H]3C[C@@H]4C(=O)N[C@@H](CC(C)C)C(=O)N4[C@@H]3c3ccc(O)cc3)cc2)[C@]12C(=O)Nc1ccc(I)cc12"
group_label = "No"


Data request: Please indicate if the recorded z-score for COCCOC(=O)N1C(=O)[C@@]2(c3cc(C#CC4=CCCCC4)ccc31)[C@H](C(=O)N1CCN(c3ncccn3)CC1)[C@H]1C(=O)O[C@H](c3ccccc3)[C@H](c3ccccc3)N1[C@@H]2c1ccccc1OCCO meets or exceeds 4.
Data returned: No

Data request: Please indicate if the recorded z-score for COC(=O)[C@@]1(Cc2ccccc2CN=[N+]=[N-])COC(c2ccc(OCCCO)cc2)=N1 meets or exceeds 4.
Data returned: Yes

Data request: Please indicate if the recorded z-score for [N-]=[N+]=NCc1ccccc1[C@@H]1OC(c2ccc(OCCCO)cc2)=N[C@]1(Cc1ccccc1)C(=O)NCc1ccccc1 meets or exceeds 4.
Data returned: Yes

Data request: Please indicate if the recorded z-score for CCOC(=O)C1=C[C@@H](C(C)(C)C)N(S(=O)(=O)c2ccc(C)cc2)[C@H]1c1ccccc1Cl meets or exceeds 4.
Data returned: No

Data request: Please indicate if the recorded z-score for C=C(COC)C(=O)CC[C@@H](OC(=O)c1cccnc1)c1cccc(OCCO)c1 meets or exceeds 4.
Data returned: No

Data request: Please indicate if the recorded z-score for C=C(CCCC)/C(=C/C[C@H](OC(C)=O)c1cccc(OCCO)c1)c1cc(C(=O)OC)ccc1OC meets or exceeds 4.
Data returned: No

Data request: Please indicate if the recorded z-score for N#Cc1ccc(C(O)C2C=CC3C(=O)N(c4ccccc4)C(=O)C3N2Nc2ccc([N+](=O)[O-])cc2)cc1 (stereo not drawn) meets or exceeds 4.
Data returned: Yes

Data request: Please indicate if the recorded z-score for CC(C)CNC(=O)[C@@]1(C)c2ccccc2C(=O)N(Cc2cc(F)cc(C(F)(F)F)c2)[C@H]1c1ccc(CO)cc1 meets or exceeds 4.
Data returned: No

Data request: Please indicate if the recorded z-score for COCCOC(=O)N1C(=O)[C@@]2(c3cc(C#CCCO)ccc31)[C@H](C(=O)N1CCN(c3ncccn3)CC1)[C@H]1C(=O)O[C@H](c3ccccc3)[C@H](c3ccccc3)N1[C@@H]2c1ccc(O)cc1 meets or exceeds 4.
Data returned: No

###

test: MM1S cell viability effects, profiling panel, calcein-AM fluorescence, 48 h, basal (AID 1165); conditions: higher = more signal;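 note: viability of MM1S multiple myeloma cells under basal unstimulated conditions; test concentration not given here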
Kindly return 1 if reported z-score is no lower than -0.2; return 0 if it is lower.

# count of solved cases: 3
[[record]]
compound = "CC(C)N1CC=CC23O[C@@H]4C=CCCOC(=O)C4[C@H]2C(=O)N(CCCCCO)[C@@H]3C1=O (stereo partly specified)"
group_label = 1

[[record]]
compound = "CC1CC/C=C\\[C@H]2OC34C=CCN(CCN5CCOCC5)C(=O)[C@H]3N(CCCCCCO)C(=O)[C@@H]4C2C(=O)O1 (stereo partly specified)"
group_label = 1

[[record]]
compound = "Cc1ccc(S(=O)(=O)N2[C@@H](c3ccccc3)C(C(=O)O)=CC[C@H]2c2ccc(C#N)cc2)cc1"
group_label = 0


Data request: Please indicate if the recorded z-score for CC(C)C[C@@H]1NC(=O)[C@H]2C[C@@H](C(=O)NCCCCCNC(=O)CS)[C@@H](c3ccc(O)cc3)N2C1=O meets or exceeds -0.2.
Data returned: 0

Data request: Please indicate if the recorded z-score for COCCOC(=O)N1C(=O)[C@@]2(c3cc(C#CC4(O)CCCCCC4)ccc31)[C@H](c1ccc(OCCO)cc1)N1[C@H](c3ccccc3)[C@H](c3ccccc3)OC(=O)[C@H]1[C@@H]2C(N)=O meets or exceeds -0.2.
Data returned: 0

###

molecular target: Fibroblast growth factor 10 (Homo sapiens) (UniProt O15520); assay: FGF10 binders on small-molecule microarrays, primary screen, biochemical, small-molecule microarray, 635 nm fluorescence (AID 1102); details: FGF10 binding, fluorescence 635 nm, higher = more signal
Sequence (O15520 whole entry, looked up): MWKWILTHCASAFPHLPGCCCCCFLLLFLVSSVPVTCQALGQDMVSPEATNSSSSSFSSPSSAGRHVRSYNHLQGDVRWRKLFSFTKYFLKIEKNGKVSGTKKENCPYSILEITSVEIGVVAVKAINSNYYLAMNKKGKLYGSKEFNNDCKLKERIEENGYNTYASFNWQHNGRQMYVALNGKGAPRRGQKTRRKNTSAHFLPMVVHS
measure: composite z-score
Form rule: numeric answer, no unit written next to it.

[[record]]
compound = "CCC[C@@H]1[C@@H](Sc2ccccc2)[C@@H](C(=O)O)[C@H](c2ccc(C)cc2)N1S(=O)(=O)c1ccc(C)cc1"
recorded_result = 1.25


Here CCCCN1CC=CC23O[C@@H]4C=CCOC(=O)[C@@H]4[C@H]2C(=O)N(C(CO)C(C)C)[C@@H]3C1=O (stereo partly drawn) was tested on Fibroblast growth factor 10 (Homo sapiens) (UniProt O15520), and its composite z-score came to -0.372

Here COCCOC(=O)N1C(=O)[C@@]2(c3cc(C#CCCO)ccc31)[C@H](c1ccccc1OCCO)N1[C@H](c3ccccc3)[C@H](c3ccccc3)OC(=O)[C@H]1[C@@H]2C(=O)N1CCc2cc(OC)c(OC)cc2C1 was tested on Fibroblast growth factor 10 (Homo sapiens) (UniProt O15520), and its composite z-score came to 1.34
